System: PBMC from healthy subjects
Assay Procedure: Peptide-specific T cell responses by IFN-γ ELISpot after short term culture, healthy subjects (Example 2)
Type: cell-based, human
Experimental Parameters: positive response = SFC/10^6 PBMC greater than 20, pools of overlapping 18-mer peptides at 5 μg/peptide/mL
# frequency of responding subjects annotations
Quantity Name: frequency of responding subjects (%)

Sequence Code | Readout Number
EFQAALSRKVAELVHFLLLKYRAREPVTKAEMLG (listed as Homo sapiens) [P513_MAGE3] | 50
RGPESRLLEFYLAMPFATPMEAELARRSLAQDAPPLPVPG (listed as Homo sapiens) [P805_NY_ESO1] | 50
GENVKIPVAIKVLRENTSPKANKEILDEAYVMAGVGSPYVSRKK (listed as Homo sapiens) [P2238-HER] | 83
QTGTGKTLCYLMPGFIHLVLQPSLKGQRNRPGMLV (listed as Homo sapiens) [P-HAGE] | 50
TFQKNRLFFYRKSVWSKLQSIGIRQHLKRVQLRELSEAEVR (listed as Homo sapiens) [P4575_hTERT] | 100
